Values from patent US20220112288A1

Molecular target: T1, Rhesus macaque CD4-HIS (Acro Biosystems, Cat. CD4-C52H7) (rhesus macaque, UniProt P16003 26-390)
T1 construct: Bought reagent; also called Rhesus CD4; rhesus CD4-HIS; not shown: His tag
T1 sequence (P16003 26-390 limits assumed): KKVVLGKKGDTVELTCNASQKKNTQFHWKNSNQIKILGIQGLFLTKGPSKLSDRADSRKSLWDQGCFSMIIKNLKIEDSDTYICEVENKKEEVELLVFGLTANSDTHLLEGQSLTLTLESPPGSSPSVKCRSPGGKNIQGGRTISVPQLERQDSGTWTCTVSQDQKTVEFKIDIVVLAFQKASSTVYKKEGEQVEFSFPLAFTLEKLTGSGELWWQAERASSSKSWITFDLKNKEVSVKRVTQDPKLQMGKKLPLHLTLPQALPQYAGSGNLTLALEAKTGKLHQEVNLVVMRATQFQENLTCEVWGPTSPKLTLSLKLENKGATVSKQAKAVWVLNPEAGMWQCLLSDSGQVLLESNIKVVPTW
Assay: BLI (Octet Red384); Ab on anti-mouse Fc (AMC) sensor; rhesus CD4-HIS 100/50/25 nM; global 1:1 fit;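 note: antibodies loaded at 10 µg/mL, an unrelated mouse-derived antibody served as internal reference, curves fit over association and dissociation phases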
recorded-metric: log10(kon) (log10 of the value in M⁻¹ s⁻¹)

binder: 75110_13C13A (antibody, V domains shown, Tested as antibody purified from AlivaMab Mouse hybridoma supernatant (human variable domains, kappa; mouse Fc, captured on anti-mouse IgG Fc sensors); also called ADS75110 purified AMM Ab) VH: QVQLQQWGAGLLKPSETLSLTCAVSGGSFSGYYWSWIRQPPGKGLEWIGEINHSGSTNCNPSLKSRVTISVDTSKNQFSLKLSSVTAADTAMYYCARVLNFFDYWGQGTLVTVSS VL: DIQMTQTPSSVSASVGDRVTITCRASPGISNWLAWYQQKPGKAPELLIYAASSLQSGVPSRFSGSGSGTDFTLTISSLQPEDFATYFCQQANSFPLTFGGGTKVESK
log10(kon): 5.74
//
binder: 75110_08D24A (antibody, V domains shown, Tested as antibody purified from AlivaMab Mouse hybridoma supernatant (human variable domains, kappa; mouse Fc, captured on anti-mouse IgG Fc sensors); also called ADS75110 purified AMM Ab) VH: QVQLQESGPGLVKPSETLSLTCTVSGGSISGFYWSWIRQPAGKGLEWIGRIYTSENTNYNPSLKSRVTMSVDTSKNQFSLKLSSVTAADTAVYYCARDREGYYYYGMDVWGQGTTVTVSS VL: DIQMTQSPSSLSASVGDRVTITCQASQDISNYLNWYQQKPGKAPKLLIYAASNLETGVPSRFSGSGSGTDFTFTISSLQPEDIATYYCQQYDSLPITFGQGTRLEIK
log10(kon): 4.51
//
binder: 75110_09N20A (antibody, V domains shown, Tested as antibody purified from AlivaMab Mouse hybridoma supernatant (human variable domains, kappa; mouse Fc, captured on anti-mouse IgG Fc sensors); also called ADS75110 purified AMM Ab) VH: EVQLVESGGGLVQPGGSLRLSCAASGFTFSSYWMSWVRQAPGKGLEWVANINEDGSEKYYVDSVKGRFTISRDNAKNSLYLQMNSLRAEDTAVYYCVREGGQWLALDYWGQGTLVTVSS VL: DIQMTQSPSSVSASVGDRVTITCRASQGISSWLAWYQQKPGKAPKLLIYAASSLQSGVPSSFSGSGSGTDFTLTINSLQPEDFATYYCQQANSFPWTFGQGTKVAIK
log10(kon): 4.96
//
binder: 75110_08M20A (antibody, V domains shown, Tested as antibody purified from AlivaMab Mouse hybridoma supernatant (human variable domains, kappa; mouse Fc, captured on anti-mouse IgG Fc sensors); also called ADS75110 purified AMM Ab) VH: QVQLQESDPGLVKPSETLSLTCTVSGGSISSYYWSWIRQPAGKGLEWIGRIYASGSTNYNPSLKSRVTMSVDTSKNQFSLKLSSVTAADTAVYYCARDREGYYYYGMDVWGQGTTVTVSS VL: DIQMTQSPSSLSASVGDRVTITCQASQDISKYLNWYQQKPGKAPNLLIYAASNLETGVPSRFSGSGSGTDFTFTISSLQPEDIAAYYCQQYDSLPITFGQGTRLEIK
log10(kon): 5.11
//
binder: 75110_08A13A (antibody, V domains shown, Tested as antibody purified from AlivaMab Mouse hybridoma supernatant (human variable domains, kappa; mouse Fc, captured on anti-mouse IgG Fc sensors); also called ADS75110 purified AMM Ab) VH: EVQLVESGGGLVQPGGSLRLSCAASGFIFSSYWMSWVRQAPGKGLEWVANIKQDGSEKYYMDSVKGRFTISRDNAKNSLYLQMNSLRAEDTAVYYCARDNSYYYYGMDVWGQGTTVTVSS VL: AIQMTQSPSSLSASVGDRVTITCRASQGIRDDLGWYQQKPGKAPKLLIFAASSLQSGVPSSFSGSGSGTDFTLTISSLQPEDFATYYCLHHYNYPYTFGQGTKLEIK
log10(kon): 5.28
//
binder: 75110_11D03A (antibody, V domains shown, Tested as antibody purified from AlivaMab Mouse hybridoma supernatant (human variable domains, kappa; mouse Fc, captured on anti-mouse IgG Fc sensors); also called ADS75110 purified AMM Ab) VH: EVQLVESGGGLVQPGGSLRLSCAASGFTFSSYWMSWVRQAPGKGLEWVANINQDGNEKYYVDSVKGRFTISRDNAKNSLFLQMNSLRAEDTAVYYCAREGGQWLALDYWGQGALVTVSS VL: DIQMTQSPSSVSASVGDRVTITCRASQGISSWLAWYQQKPGKAPKFLISGASSLQSGVPSRFSGSGSGTDFTLTISSLQPEDFATYYCQQANSFPWTFGQGTKVEIK
log10(kon): 5.72
//
binder: 75110_07B16A (antibody, V domains shown, Tested as antibody purified from AlivaMab Mouse hybridoma supernatant (human variable domains, kappa; mouse Fc, captured on anti-mouse IgG Fc sensors); also called ADS75110 purified AMM Ab) VH: QVQLQQWGAGLLKPSETLSLTCAVYGGSFSGYYWSWIRQSPGKGLEWIGEINQSGSTNYNPSLKSRVTISVDTSKDQFSLKLSSVTAADTAVYYCARVINWFDSWGQGSLVTVSS VL: DIQMTQSPSSVSASVGDRVTITCRASQGISSWLAWYQQKPGKAPKLLIYDASSFQSGVPSRFSGSGSGTDFTLTISSLQTDDFATYYCQQANSFPYTFGQGTKLEIK
log10(kon): 5.40
//
binder: 75110_09G15A (antibody, V domains shown, Tested as antibody purified from AlivaMab Mouse hybridoma supernatant (human variable domains, kappa; mouse Fc, captured on anti-mouse IgG Fc sensors); also called ADS75110 purified AMM Ab) VH: EVQLVESGGGLVQPGGSLRLSCAASGFTFSDYWMSWVRQAPGKGLEWVANINQDGSEKYSVDSVKGRFTISRDNAKNSLYLQMNSLRAEDTAIFYCAREGGQWLALDYWGQGTLVTVSS VL: DIQMTQSPSSVSASVGDRVTITCRASQGISSWLAWYQQKPGKAPKLLIYGASSLQSGVPSRFSGSGSGTDFTLTINSLQPEDFTTYYCQQANIFPWTFGQGTKVEIK
log10(kon): 4.92
